- Test system: uninfected HEp-2 cells
- method.description: HEp-2 CC50 (cytotoxicity in uninfected HEp-2 cells)
- Format: cell-based
- experimental.parameters: 4 days, CellTiter Glo
property.label: CC50 (µM)
One number for each entry, in µM.

Some compounds with recorded CC50:
Please look at CCOC(=O)[C@H](C)NP(=O)(OC[C@@]1(CF)O[C@@H](c2ccc3c(N)ncnn23)[C@H](O)[C@@H]1O)Oc1ccc(C(C)(C)C)cc1 (single isomer, unassigned) [Example 48] and tell me its recorded CC50 on uninfected HEp-2 cells.
30.2

Please look at CCC(=O)O[C@H]1[C@H](c2ccc3c(N)ncnn23)O[C@](CF)(COP(=O)(N[C@@H](C)C(=O)OC)Oc2ccccc2)[C@H]1OC(=O)CC (some centres unmarked) and tell me its recorded CC50 on uninfected HEp-2 cells.
43.3

Quick batch: CC50 for everything below.
1. CCOC(=O)[C@H](C)NP(=O)(OC[C@@]1(CF)O[C@@H](c2ccc3c(N)ncnn23)[C@H](OC(=O)CC)[C@@H]1OC(=O)CC)Oc1ccccc1 (some centres unmarked)
2. CCOC(=O)[C@H](C)NP(=O)(OC[C@@]1(CF)O[C@@H](c2ccc3c(N)ncnn23)[C@H](OC(=O)C(C)C)[C@@H]1OC(=O)C(C)C)Oc1ccccc1 (some centres unmarked)

1: 70; 2: 16.6
